B1: ALDH8A1 (parent)
chain: FTGSQPTAERITQLSAPHCKKLSL

# Variants of: B1
# test_protocol: protein stability index of a GFP-peptide fusion (GPS, HEK-293T) (PSI 1-6); higher = more stable;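 also: lentivirally expressed fusions sorted by FACS into six bins by GFP to DsRed ratio, PSI derived from sequencing read proportions per bin multiplied by bin number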
# reported_conditions: c terminus: a fixed tail appended
measurement_name: protein stability index
Answers are plain numbers.

Here are 3 variants together with their reported answers.
Give protein stability index for A16L
2.17

Identify measured protein stability index associated with P17I
2.38

State its protein stability index: L14M
1.86

Quick request: protein stability index for each listed item, please.
1. T2E
2. S15V
3. S23A

[3.86, 2.36, 2.4]

Answer with the recorded protein stability index for the variant listed here: A8G
2.95
